// provenance: the supplement of paper PMC9170038

tested on: K4 kissing-loop RNA reporter; assay: apparent KD of K4 kissing-loop reporter; higher = weaker reporter binding; conditions: Eterna round: R107; input ligand: arginine 13.2 mM;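 further: bound reporter read as fluorescence of individual clusters on recovered sequencing chips by microscopy, with normalized cluster intensities fitted with a binding model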
Kindly state apparent KD of K4 kissing-loop reporter for each of the entries shown.
Give bare numbers, in nM.

See these solved cases before continuing.
| sequence record | apparent KD of K4 kissing-loop reporter (nM) |
| --- | --- |
| GGAUAGGACGGAGGAUAUGGUAGUGAUGUUACCAAACUGGUUAAACAUGUCAGAAAACUGGCAUGACCAGAAGGCUGUCCUAUCG [FmnBX 27 G10] | 65.2 |
| GGAUAGGACAGAGGAUAUCUCUGAGGCAAGAAAACUUGUCUCUAAAGAGAUGACUCAGUGAUGUUGGGAGAAGGCUGUCCUAUCG [FmnBX 10 - #SwitchBubble #StaticStem] | 139 |

Now let's try a different one.
(Q) Which apparent KD of K4 kissing-loop reporter reading was recorded for the sequence AUGUCUUAUAAACUCAUGGUUUCGAUCGAUACCAGUAGCGAGAGUUACCCUUGGCAGCGACAUGAGUGAUGUUCAUGUACGAAGA [KL-XTheoA5] ?
(A) 98.7
